melting point: recorded values

Here is how some molecules turned out for melting point.
Cc1ccc(-c2csc(NN=C3CCc4cc(Br)ccc43)n2)cc1 [10b] :: 233 to 234 °C
Cc1cccc(N=Nc2sc(NN=C3CCc4cc(Br)ccc43)nc2C)c1 :: 128 to 129 °C
NN=C1CCc2cc(Br)ccc21 [compound 4, (5-Bromo-indan-1-ylidene)-hydrazine] :: 120 °C
Cc1nc(NN=C2CCc3cc(Br)ccc32)sc1N=Nc1ccc(Cl)cc1 :: 177 to 178 °C
CCOC(=O)C(=NNc1ccccc1)NN=C1CCc2cc(Br)ccc21 :: 174 to 176 °C

q: For the molecule CC(=O)C(=NNc1ccccc1)NN=C1CCc2cc(Br)ccc21 [14a] , what melting point is on record?
a: 190 °C

q: For the molecule NC(=S)NN=C1CCc2cc(Br)ccc21 , what melting point is on record?
a: 227 to 230 °C

q: For the molecule Cc1nc(N/N=C2\CCc3cc(Br)ccc32)sc1/N=N/c1ccccc1 , what melting point is on record?
a: 220 to 222 °C

q: For the molecule Cc1ccc(N=Nc2sc(NN=C3CCc4cc(Br)ccc43)nc2C)cc1 , what melting point is on record?
a: 130 to 132 °C

q: For the molecule CC(=O)/C(=N\Nc1ccc(Cl)cc1)N/N=C1\CCc2cc(Br)ccc21 [14b] , what melting point is on record?
a: 197 to 198 °C

q: For the molecule Brc1ccc(-c2csc(NN=C3CCc4cc(Br)ccc43)n2)cc1 [10c] , what melting point is on record?
a: 230 to 232 °C
